Origin of the recorded values: the supplement of paper PMC9112550

Test system: Escherichia coli TOP10;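 also: peptides expressed intracellularly from a pBAD plasmid library in pooled LB shake-flask culture, induced with 0.3% L-arabinose, DNA abundance read by NGS, three biological replicates, DESeq2 with apeglm shrinkage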
method-description: shrunken log2 fold change of peptide-encoding DNA abundance (4.5 h post-induction vs induction); higher = less antimicrobial activity (less host growth inhibition)
reported-conditions: time post-induction: 4.5 h; library: site-saturation at positions 5, 18, 19, 20
measured-quantity: shrunken log2 fold change

> print(dat)
             input.sequence           target.system          measured.quantity  test.result
 1  RRIRNRPPRLPRPRPRPANLPRP  Escherichia coli TOP10  shrunken log2 fold change       -0.342
 2  RRIRKRPPRLPRPRPRPNWRPRP  Escherichia coli TOP10  shrunken log2 fold change         1.32
 3  RRIRIRPPRLPRPRPRPKIVPRP  Escherichia coli TOP10  shrunken log2 fold change       -0.716
 4  RRIRARPPRLPRPRPRPKTFPRP  Escherichia coli TOP10  shrunken log2 fold change      -0.0543
 5  RRIRWRPPRLPRPRPRPWVGPRP  Escherichia coli TOP10  shrunken log2 fold change        0.207
 6  RRIRPRPPRLPRPRPRPEMLPRP  Escherichia coli TOP10  shrunken log2 fold change         0.16
 7  RRIRVRPPRLPRPRPRPCYGPRP  Escherichia coli TOP10  shrunken log2 fold change       -0.259
 8  RRIRTRPPRLPRPRPRPFFQPRP  Escherichia coli TOP10  shrunken log2 fold change       0.0474
 9  RRIRARPPRLPRPRPRPGMVPRP  Escherichia coli TOP10  shrunken log2 fold change        0.509
10  RRIRWRPPRLPRPRPRPCIAPRP  Escherichia coli TOP10  shrunken log2 fold change      0.00205
11  RRIRIRPPRLPRPRPRPPVMPRP  Escherichia coli TOP10  shrunken log2 fold change        0.126
12  RRIRLRPPRLPRPRPRPCKKPRP  Escherichia coli TOP10  shrunken log2 fold change       -0.149
13  RRIRNRPPRLPRPRPRPETLPRP  Escherichia coli TOP10  shrunken log2 fold change        0.373
14  RRIRVRPPRLPRPRPRPQSCPRP  Escherichia coli TOP10  shrunken log2 fold change       -0.342
15  RRIRERPPRLPRPRPRPYTLPRP  Escherichia coli TOP10  shrunken log2 fold change       -0.338
16  RRIRQRPPRLPRPRPRPYHVPRP  Escherichia coli TOP10  shrunken log2 fold change     -0.00172
17  RRIRFRPPRLPRPRPRPSKIPRP  Escherichia coli TOP10  shrunken log2 fold change        0.903
18  RRIRKRPPRLPRPRPRPCFTPRP  Escherichia coli TOP10  shrunken log2 fold change        0.135
19  RRIRQRPPRLPRPRPRPCKHPRP  Escherichia coli TOP10  shrunken log2 fold change        -1.29
20  RRIRPRPPRLPRPRPRPELNPRP  Escherichia coli TOP10  shrunken log2 fold change        0.117
21  RRIRCRPPRLPRPRPRPWPVPRP  Escherichia coli TOP10  shrunken log2 fold change        0.215
22  RRIRKRPPRLPRPRPRPDVNPRP  Escherichia coli TOP10  shrunken log2 fold change        0.139
23  RRIRCRPPRLPRPRPRPHFQPRP  Escherichia coli TOP10  shrunken log2 fold change       -0.511
24  RRIRFRPPRLPRPRPRPVNWPRP  Escherichia coli TOP10  shrunken log2 fold change        0.253
25  RRIRNRPPRLPRPRPRPVWKPRP  Escherichia coli TOP10  shrunken log2 fold change        0.119
26  RRIRDRPPRLPRPRPRPDGWPRP  Escherichia coli TOP10  shrunken log2 fold change        0.965
27  RRIRDRPPRLPRPRPRPKSDPRP  Escherichia coli TOP10  shrunken log2 fold change        0.295
28  RRIRERPPRLPRPRPRPANFPRP  Escherichia coli TOP10  shrunken log2 fold change       -0.163
29  RRIRFRPPRLPRPRPRPPINPRP  Escherichia coli TOP10  shrunken log2 fold change       -0.406
30  RRIRVRPPRLPRPRPRPIIDPRP  Escherichia coli TOP10  shrunken log2 fold change       0.0493
31  RRIRFRPPRLPRPRPRPTTDPRP  Escherichia coli TOP10  shrunken log2 fold change        -0.13
32  RRIRKRPPRLPRPRPRPGEQPRP  Escherichia coli TOP10  shrunken log2 fold change      -0.0435
